This collection of values is drawn from PubChem BioAssay AID2060890.

Consider the following compounds and their measured IC50 readings.
System: LG0703-F948-PDC complex spheroid viability;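 note: spheroids exposed to agents for 7 days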
Assay: Anticancer human tumor LG0703-F948-PDC patient-derived lung adenocarcinoma cell line growth inhibition [RAS]
Details: curve of first compound; second compound 0.00949 µM
A number alone suffices; assume µM.

Some solved cases for reference:
| compound | endpoint unit | IC50 |
| --- | --- | --- |
| NC1c2ccccc2OC12CCN(c1cnc3c(N4CCCc5ncccc54)n[nH]c3n1)CC2 (configuration not stated) + CCn1c(-c2cccnc2C(C)OC)c2c3cc(ccc31)N1CCOC(CC(NC(=O)C(C(C)C)N(C)C(=O)C3(F)CCN(C(=O)C#CC(C)(C)N(C)C)CC3)C(=O)N3CCCC(N3)C(=O)OCC(C)(C)C2)C1 | µM | 0.0479 |
| CC(C)NCC(C(=O)N1CCN(c2ncnc3c2C(C)CC3O)CC1)c1ccc(Cl)cc1 (configuration not stated) + CCn1c(-c2cccnc2C(C)OC)c2c3cc(ccc31)N1CCOC(CC(NC(=O)C(C(C)C)N(C)C(=O)C3(F)CCN(C(=O)C#CC(C)(C)N(C)C)CC3)C(=O)N3CCCC(N3)C(=O)OCC(C)(C)C2)C1 | µM | 0.858 |

Now turn to the next compound.
Give IC50 (LG0703-F948-PDC complex spheroid viability) of the following compound: C=CC(=O)Nc1cc(Nc2nccc(-c3cn(C)c4ccccc34)n2)c(OC)cc1N(C)CCN(C)C + CCn1c(-c2cccnc2C(C)OC)c2c3cc(ccc31)N1CCOC(CC(NC(=O)C(C(C)C)N(C)C(=O)C3(F)CCN(C(=O)C#CC(C)(C)N(C)C)CC3)C(=O)N3CCCC(N3)C(=O)OCC(C)(C)C2)C1
0.0121
